Taken from paper PMC10301845.

# EXPERIMENT DESCRIPTION: Protein binding in plasma (ultrafiltration)
# Assay type: in vitro ADME, monkey
# CONDITION: male, cynomolgus, monkey, plasma, baseline; read-out: free fraction in plasma
MEASURED PARAMETER: fraction unbound at 10 min

What does the record list as fraction unbound at 10 min for Cc1nc(N[11CH3])c2c(c1C)CN(C(=O)C[C@H]1C[C@@H]1c1ccc(F)nc1)C2 [[^11C]PF06885190] ?
0.248
